Molecular target: T1, human CD40 on cells (human, UniProt P25942 21-277)
T1 construct: whole, on cells; The cell line used is named in each row's assay; also called hCD40; TNFRSF5
T1 sequence (P25942 21-277): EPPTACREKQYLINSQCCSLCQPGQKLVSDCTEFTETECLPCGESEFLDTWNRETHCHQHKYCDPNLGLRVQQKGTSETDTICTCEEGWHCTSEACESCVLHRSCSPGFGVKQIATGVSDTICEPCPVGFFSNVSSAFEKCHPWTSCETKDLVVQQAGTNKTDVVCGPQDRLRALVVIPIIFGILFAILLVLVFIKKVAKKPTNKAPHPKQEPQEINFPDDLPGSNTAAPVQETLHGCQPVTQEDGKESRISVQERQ
Assay: FACS, Raji cells
From the text: Flow cytometry (FACS) was used to detect the binding ability of the CD40 antibody to cells, such as, CHO-K1/hCD40 highly expressing human CD40 (constructed by Beijing Kyinno Biotechnology), CHO-K1/cyCD40 highly expressing cynomolgus monkey CD40 (constructed by Beijing Kyinno Biotechnology) and lymphoma cell highly expressing human CD40, Raji (ATCC, #CCL-86). […]
RESULT_TYPE: EC50 (nM)
Give just the numeric value; nM need not be written.

Field EC50 (entry PR006499 (antibody, human IgG1, kappa, V domains shown, PR003379 variant L:N92W; human IgG1 L234A, L235A, G237A) VH: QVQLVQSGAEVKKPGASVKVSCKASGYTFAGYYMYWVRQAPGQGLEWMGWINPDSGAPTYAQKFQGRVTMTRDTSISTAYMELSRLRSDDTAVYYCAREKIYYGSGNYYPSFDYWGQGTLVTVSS VL: DIQLTQSPSFLSASVGDRVTITCRASQGISSYLAWYQQKPGKAPKLLIYAASTLQSGVPSRFSGSGSGTEFTLTISSLQPEDFATYYCQQLWSYPWTFGQGTKVEIKR ) reads 0.301

get_value(item= PR006498 (antibody, human IgG1, kappa, V domains shown, PR003379 variant L:N92I; human IgG1 L234A, L235A, G237A) VH: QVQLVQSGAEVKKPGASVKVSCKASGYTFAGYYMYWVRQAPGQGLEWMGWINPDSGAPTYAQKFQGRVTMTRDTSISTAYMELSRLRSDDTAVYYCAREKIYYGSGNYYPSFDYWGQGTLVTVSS VL: DIQLTQSPSFLSASVGDRVTITCRASQGISSYLAWYQQKPGKAPKLLIYAASTLQSGVPSRFSGSGSGTEFTLTISSLQPEDFATYYCQQLISYPWTFGQGTKVEIKR , readout=EC50) returns 0.344

So for PR006514 (antibody, human IgG1, kappa, V domains shown, PR003379 variant L:S93V; human IgG1 L234A, L235A, G237A) VH: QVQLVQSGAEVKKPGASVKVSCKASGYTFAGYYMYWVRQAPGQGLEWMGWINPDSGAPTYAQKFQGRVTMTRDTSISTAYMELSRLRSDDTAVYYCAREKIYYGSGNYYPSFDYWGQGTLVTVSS VL: DIQLTQSPSFLSASVGDRVTITCRASQGISSYLAWYQQKPGKAPKLLIYAASTLQSGVPSRFSGSGSGTEFTLTISSLQPEDFATYYCQQLNVYPWTFGQGTKVEIKR , the logged EC50 turned out to be 0.455
